Consider the following variants; for each one, report its protein stability index.
B1: KRT34 (parent)
chain: YQSYFKTIEELQQKILCAKAENAR

Variants of: B1
Test: protein stability index of a GFP-peptide fusion (GPS, HEK-293T) (PSI 1-6); higher = more stable;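 also: lentivirally expressed fusions sorted by FACS into six bins by GFP to DsRed ratio, PSI derived from sequencing read proportions per bin multiplied by bin number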
Conditions: c terminus: a fixed tail appended
No unit in the answer, only the number.

INPUT: Requested read-out: protein stability index. Entry: `E9I`
OUTPUT: 2

INPUT: Requested read-out: protein stability index. Entry: `L11E`
OUTPUT: 1.88

INPUT: Requested read-out: protein stability index. Entry: `L11Y`
OUTPUT: 2.08

INPUT: Requested read-out: protein stability index. Entry: `Q2P`
OUTPUT: 2.26

INPUT: Requested read-out: protein stability index. Entry: `E21P`
OUTPUT: 2.14

INPUT: Requested read-out: protein stability index. Entry: `E10P`
OUTPUT: 1.93

INPUT: Requested read-out: protein stability index. Entry: `I15G`
OUTPUT: 1.45

INPUT: Requested read-out: protein stability index. Entry: `K6E`
OUTPUT: 1.85

INPUT: Requested read-out: protein stability index. Entry: `E10F`
OUTPUT: 2.41

INPUT: Requested read-out: protein stability index. Entry: `N22G`
OUTPUT: 1.36

INPUT: Requested read-out: protein stability index. Entry: `I15N`
OUTPUT: 2.23

INPUT: Requested read-out: protein stability index. Entry: `L11S`
OUTPUT: 1.2

INPUT: Requested read-out: protein stability index. Entry: `E10D`
OUTPUT: 1.61

INPUT: Requested read-out: protein stability index. Entry: `E9H`
OUTPUT: 2.46

INPUT: Requested read-out: protein stability index. Entry: `L16H`
OUTPUT: 2.12

INPUT: Requested read-out: protein stability index. Entry: `Q13S`
OUTPUT: 1.52

INPUT: Requested read-out: protein stability index. Entry: `F5H`
OUTPUT: 2.34

INPUT: Requested read-out: protein stability index. Entry: `Q2D`
OUTPUT: 2.13

INPUT: Requested read-out: protein stability index. Entry: `S3Y`
OUTPUT: 2.13

INPUT: Requested read-out: protein stability index. Entry: `A20T`
OUTPUT: 1.87

INPUT: Requested read-out: protein stability index. Entry: `A20F`
OUTPUT: 1.4

INPUT: Requested read-out: protein stability index. Entry: `A23S`
OUTPUT: 2.05

INPUT: Requested read-out: protein stability index. Entry: `F5C`
OUTPUT: 2.24

INPUT: Requested read-out: protein stability index. Entry: `S3K`
OUTPUT: 1.96

INPUT: Requested read-out: protein stability index. Entry: `Y4G`
OUTPUT: 3.06

INPUT: Requested read-out: protein stability index. Entry: `T7A`
OUTPUT: 2.2

INPUT: Requested read-out: protein stability index. Entry: `T7V`
OUTPUT: 1.72

INPUT: Requested read-out: protein stability index. Entry: `K19S`
OUTPUT: 1.9

INPUT: Requested read-out: protein stability index. Entry: `K6I`
OUTPUT: 1.91

INPUT: Requested read-out: protein stability index. Entry: `A23T`
OUTPUT: 1.64

INPUT: Requested read-out: protein stability index. Entry: `S3N`
OUTPUT: 2.23

INPUT: Requested read-out: protein stability index. Entry: `R24N`
OUTPUT: 2.25

INPUT: Requested read-out: protein stability index. Entry: `L11A`
OUTPUT: 1.79

INPUT: Requested read-out: protein stability index. Entry: `Q13N`
OUTPUT: 1.92

INPUT: Requested read-out: protein stability index. Entry: `L11P`
OUTPUT: 2.3

INPUT: Requested read-out: protein stability index. Entry: `Q2V`
OUTPUT: 1.54

INPUT: Requested read-out: protein stability index. Entry: `E10I`
OUTPUT: 1.96

INPUT: Requested read-out: protein stability index. Entry: `F5Q`
OUTPUT: 2.53

INPUT: Requested read-out: protein stability index. Entry: `K14R`
OUTPUT: 1.77

INPUT: Requested read-out: protein stability index. Entry: `S3V`
OUTPUT: 1.62

INPUT: Requested read-out: protein stability index. Entry: `E21R`
OUTPUT: 2.12

INPUT: Requested read-out: protein stability index. Entry: `F5L`
OUTPUT: 1.81

INPUT: Requested read-out: protein stability index. Entry: `L16N`
OUTPUT: 1.75

INPUT: Requested read-out: protein stability index. Entry: `S3Q`
OUTPUT: 2.3

INPUT: Requested read-out: protein stability index. Entry: `R24G`
OUTPUT: 1.16

INPUT: Requested read-out: protein stability index. Entry: `I15R`
OUTPUT: 1.66

INPUT: Requested read-out: protein stability index. Entry: `N22Q`
OUTPUT: 2.09

INPUT: Requested read-out: protein stability index. Entry: `E9R`
OUTPUT: 1.75

INPUT: Requested read-out: protein stability index. Entry: `E9W`
OUTPUT: 2.23

INPUT: Requested read-out: protein stability index. Entry: `A20N`
OUTPUT: 1.71

INPUT: Requested read-out: protein stability index. Entry: `T7E`
OUTPUT: 2.58

INPUT: Requested read-out: protein stability index. Entry: `Y1F`
OUTPUT: 1.96

INPUT: Requested read-out: protein stability index. Entry: `A23L`
OUTPUT: 2.01

INPUT: Requested read-out: protein stability index. Entry: `Q13F`
OUTPUT: 2.05

INPUT: Requested read-out: protein stability index. Entry: `L11G`
OUTPUT: 2.58

INPUT: Requested read-out: protein stability index. Entry: `C17L`
OUTPUT: 2.6

INPUT: Requested read-out: protein stability index. Entry: `E10R`
OUTPUT: 2.49

INPUT: Requested read-out: protein stability index. Entry: `L16G`
OUTPUT: 2.02

INPUT: Requested read-out: protein stability index. Entry: `E10K`
OUTPUT: 1.81

INPUT: Requested read-out: protein stability index. Entry: `I15M`
OUTPUT: 1.89

INPUT: Requested read-out: protein stability index. Entry: `Q13T`
OUTPUT: 1.74

INPUT: Requested read-out: protein stability index. Entry: `E9M`
OUTPUT: 3.64

INPUT: Requested read-out: protein stability index. Entry: `C17D`
OUTPUT: 1.84

INPUT: Requested read-out: protein stability index. Entry: `Y1E`
OUTPUT: 4.59

INPUT: Requested read-out: protein stability index. Entry: `C17M`
OUTPUT: 2.11

INPUT: Requested read-out: protein stability index. Entry: `K14G`
OUTPUT: 1.69

INPUT: Requested read-out: protein stability index. Entry: `S3D`
OUTPUT: 1.98

INPUT: Requested read-out: protein stability index. Entry: `K14Y`
OUTPUT: 1.46

INPUT: Requested read-out: protein stability index. Entry: `K19I`
OUTPUT: 2.39

INPUT: Requested read-out: protein stability index. Entry: `K19M`
OUTPUT: 2.51

INPUT: Requested read-out: protein stability index. Entry: `I8M`
OUTPUT: 2.26

INPUT: Requested read-out: protein stability index. Entry: `E21L`
OUTPUT: 2.17

INPUT: Requested read-out: protein stability index. Entry: `L16A`
OUTPUT: 1.8

INPUT: Requested read-out: protein stability index. Entry: `S3W`
OUTPUT: 1.54

INPUT: Requested read-out: protein stability index. Entry: `Y1I`
OUTPUT: 1.52

INPUT: Requested read-out: protein stability index. Entry: `L11K`
OUTPUT: 2.34

INPUT: Requested read-out: protein stability index. Entry: `Q12A`
OUTPUT: 1.6

INPUT: Requested read-out: protein stability index. Entry: `Q13M`
OUTPUT: 1.82

INPUT: Requested read-out: protein stability index. Entry: `N22K`
OUTPUT: 2.22

INPUT: Requested read-out: protein stability index. Entry: `C17T`
OUTPUT: 2.04

INPUT: Requested read-out: protein stability index. Entry: `T7I`
OUTPUT: 1.84

INPUT: Requested read-out: protein stability index. Entry: `Q12R`
OUTPUT: 2.63

INPUT: Requested read-out: protein stability index. Entry: `L11D`
OUTPUT: 1.5

INPUT: Requested read-out: protein stability index. Entry: `Q12T`
OUTPUT: 2.21

INPUT: Requested read-out: protein stability index. Entry: `Y1P`
OUTPUT: 3.59

INPUT: Requested read-out: protein stability index. Entry: `C17E`
OUTPUT: 2.39

INPUT: Requested read-out: protein stability index. Entry: `R24M`
OUTPUT: 1.02

INPUT: Requested read-out: protein stability index. Entry: `E9F`
OUTPUT: 1.73

INPUT: Requested read-out: protein stability index. Entry: `A20R`
OUTPUT: 1.88

INPUT: Requested read-out: protein stability index. Entry: `A23E`
OUTPUT: 2.71

INPUT: Requested read-out: protein stability index. Entry: `L11F`
OUTPUT: 1.4

The values you see were collected from the supplement of paper PMC10567573.
